Biological target: Inadl_1, Q8NI35
Sequence (Q8NI35 113-229): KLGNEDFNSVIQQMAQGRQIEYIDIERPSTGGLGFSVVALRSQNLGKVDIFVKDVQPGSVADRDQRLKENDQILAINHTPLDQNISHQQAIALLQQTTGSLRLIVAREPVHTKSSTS
Assay: holdup assay
Parameters: key: below the threshold = too weak to quantify, mostly under pKd 3.1 to 4
Settings: plain residues with an end cap or a label only (N-terminal biotin on a linker: ado-ado)

{"BINDER": "TKEIPNCTSV [SORCS3, Q9UPU3]", "pKd": "below the threshold"}
{"BINDER": "GDSSRKEYFI [GYPC, P04921]", "pKd": 4.12}
{"BINDER": "AKADAQESRL [PLCB2, Q00722]", "pKd": "below the threshold"}
{"BINDER": "PLATCDETSI [SEMA4F, O95754]", "pKd": "below the threshold"}
